Where do the numbers come from? From the supplement of paper PMC9233669.

Recorded self-aminoacylation for the following sequences
- Tested on: biotinyl-Met-oxazolone
- assay_explanation: self-aminoacylation, catalytic enhancement (BMO) (fold over background); higher = more active; k-Seq, kA / k0A0; sequences stand for … in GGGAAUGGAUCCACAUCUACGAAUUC…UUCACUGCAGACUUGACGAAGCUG
Variants at the floor of the assay were thinned out.
// keep it numeric: no unit symbol after the value

| record_sequence | tested_target | self-aminoacylation |
| --- | --- | --- |
| AAGUUCGCGAAUAGUCGCAAG [Fam3.1 aminoacylation ribozyme variant] | biotinyl-Met-oxazolone | 2.31 |
| CCACACUUCAAGCAAUCGCUU [Fam1B.1 aminoacylation ribozyme variant] | biotinyl-Met-oxazolone | 2.06 |
| AGGUUUGCUAAAAGUCGCAAG [Fam3.1 aminoacylation ribozyme variant] | biotinyl-Met-oxazolone | 2.13 |
| AUUACCCUGGUCAACGAGUGU [Fam2.1 aminoacylation ribozyme variant] | biotinyl-Met-oxazolone | 2.91 |
| AUUCGCCUAGGUCAUAGGGUG [Fam2.2 aminoacylation ribozyme variant] | biotinyl-Met-oxazolone | 2.16 |

Known value: biotinyl-Met-oxazolone self-aminoacylation of the sequence AUUGCCCUGGUCAUCGUGUGA [Fam2.1 aminoacylation ribozyme variant] equals 2.93
